B1: Chromodomain-helicase-DNA-binding protein 7, residues 2564 to 2605; numbered along this chain, Q9P2D1 (parent)
chain: DPDTRIPVINLEDGTRLVGEDAPKNKDLVEWLKLHPTYTVDM

Variants of: B1
Experiment Description: abundance fitness (aPCA) (normalised: wild type 0, dead -1); higher = more abundant; growth selection in yeast, the domain comes from the species named
Stated Conditions: Homo sapiens
A collection of variants and their measured abundance fitness

{"columns": ["Query Sequence", "abundance fitness"],
 "data": [
  ["DPDTREPVINLEDGTRLVGEDAPKNKDLVEWLKLHPTYTVDM [I6E]", -0.276],
  ["DPDTRIPVINCEDGTRLVGEDAPKNKDLVEWLKLHPTYTVDM [L11C]", -0.195],
  ["DPDTRIPVINLEDGTRLVGEDAPKNKLLVEWLKLHPTYTVDM [D27L]", -0.678],
  ["DPDTRIPVINLEDGTRLVGEDAPKNKDLVEWLKLHPTYTLDM [V40L]", -0.381],
  ["DPDTRIPVINLEDGTRLVGEDAPKNKDLSEWLKLHPTYTVDM [V29S]", 0.063],
  ["DPDTRIPVINLEDGTRLVGEDAPKNKELVEWLKLHPTYTVDM [D27E]", -0.23],
  ["DPDTRIPVINLEDGTRLVGEDAPKNKDLVEQLKLHPTYTVDM [W31Q]", -0.569],
  ["DPDTRIPVINLEDGTRLVGEDAPKNKDLVEWLKLHPTYTVDA [M42A]", 0.132],
  ["DPDTRIPVINLEDGTRLVGEDAPKNKDLVEWLKLHPTKTVDM [Y38K]", -0.321],
  ["DPDTRIPVINLEDGTRLVGEDAPKNKDLVEELKLHPTYTVDM [W31E]", -0.099],
  ["DPDTRIPVINLEDGTRLVGEDAPKNKDLVEWLKLHPTYTVQM [D41Q]", -0.422],
  ["DPDTRIPVINLEDGTRLVGEDAPHNKDLVEWLKLHPTYTVDM [K24H]", -0.107],
  ["DPDTRIPVINLEDGTRLVGEDAPKNKDLVELLKLHPTYTVDM [W31L]", -0.492],
  ["DPDTRIPVINLEDGTRLVGEHAPKNKDLVEWLKLHPTYTVDM [D21H]", -0.109],
  ["DPDTRIPVINLEDGTRLVGEDAPKNKDLVEWLKLYPTYTVDM [H35Y]", -0.593],
  ["DPDTRIPVINLENGTRLVGEDAPKNKDLVEWLKLHPTYTVDM [D13N]", 0.046],
  ["DPDTRIPVINLEDGTRLVGEDAPKNKDLVEWLKLHPDYTVDM [T37D]", -0.09],
  ["DPDTRIPVINLEDGTRLVGADAPKNKDLVEWLKLHPTYTVDM [E20A]", -0.163],
  ["DPDTRIPVINLEDGTRLVGEDAPPNKDLVEWLKLHPTYTVDM [K24P]", -0.449],
  ["DPDTRIPVINLEDGTRLVGEDAPKNKDLVVWLKLHPTYTVDM [E30V]", -0.391],
  ["DPDTRIPVINLEDGTMLVGEDAPKNKDLVEWLKLHPTYTVDM [R16M]", 0.502],
  ["DPDTRIPVINLEDGTRLVGEDAPKFKDLVEWLKLHPTYTVDM [N25F]", -0.249]
]}
